These entries and their values trace back to patent US20210380703A1.

target: Mouse ACVR2A (mouse, UniProt P27038 20-135, limits assumed); test: ELISA; note: test concentration or dose not given here
Sequence (P27038 20-135 limits assumed): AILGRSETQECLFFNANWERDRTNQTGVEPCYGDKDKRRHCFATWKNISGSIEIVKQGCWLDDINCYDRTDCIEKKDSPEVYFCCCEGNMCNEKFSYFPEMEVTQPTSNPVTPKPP
Test Readout: optical density (OD)

binder="367_E12 (antibody, V domains shown, VH/VL only) VH: EVQLLESGGGLVQPGGSLRLSCAASGFTFSSYGMHWVRQAPGKGLEWVASINYNGGYTSYADSVKGRFTISRDNSKNTLYLQMNSLRAEDTAVYYCARGATWHDTHLDYWGQGTLVTVSS VL: DIQMTQSPSSLSASVGDRVTITCRASQSILTYVNWYQQKPGKAPKLLIYAASSLQSGVPSRFSGSGSGTDFTLTISSLQPEDFATYYCQQSYNSPLTFGGGTKVEIK" assay_value=2.91
binder="365_E07 (antibody, V domains shown, VH/VL only) VH: EVQLLESGGGLVQPGGSLRLSCAASGFTFDSYGMHWVRQAPGKGLEWVSGINYNSGYTSYADSVKGRFTISRDNSKNTLYLQMNSLRAEDTAVYYCAKSANWHDTHLDYWGQGTLVTVSS VL: DIQMTQSPSSLSASVGDRVTITCRASQSILSYLNWYQQKPGKAPKLLIYAATSRASGVPSRFSGSGSGTDFTLTISSLQPEDFATYYCQQSYDNPLTFGGGTKVEIK" assay_value=2.7
binder="374_A05 (antibody, V domains shown, VH/VL only) VH: EVQLLESGGGLVQPGGSLRLSCAASGFTFSDYGMNWVRQAPGKGLEWVANINYNGGYKGYADSVKGRFTISRDNSKNTLYLQMNSLRAEDTAVYYCARGATWHDTHLDYWGQGTLVTVSS VL: DIQMTQSPSSLSASVGDRVTITCRASQSIVRYLNWYQQKPGKAPKLVIYAATSLASGVPSRFSGSGSGTDFTLTISSLQPEDFATYYCQQSYELPLTFGGGTKVEIK" assay_value=3.6
binder="365_F12 (antibody, V domains shown, VH/VL only) VH: EVQLLESGGGLVQPGGSLRLSCAASGFTFSDYSMNWVRQAPGKGLEWVSGINYNGGYTSYADSVKGRFTISRDNSKNTLYLQMNSLRAEDTAVYYCARSANWHDTHLDYWGQGTLVTVSS VL: DIQMTQSPSSLSASVGDRVTITCRASQSILTYVNWYQQKPGKAPKLVIYAATSRHSGVPSRFSGSGSGTDFTLTISSLQPEDFATYYCQQSYETPLTFGGGTKVEIK" assay_value=2.83
binder="366_H09 (antibody, V domains shown, VH/VL only) VH: EVQLLESGGGLVQPGGSLRLSCAASGFTFDSYGMNWVRQAPGKGLEWVSNINYNSGYKGYADSVKGRFTISRDNSKNTLYLQMNSLRAEDTAVYYCARSANWHDTALDYWGQGTLVTVSS VL: DIQMTQSPSSLSASVGDRVTITCRASQSIVSYVNWYQQKPGKAPKLVIYATTSRASGVPSRFSGSGSGTDFTLTISSLQPEDFATYYCQQSYSSPLTFGGGTKVEIK" assay_value=2.44
